Assay: 28-day multiple dose study, monkey
Assay type: in vivo, monkeys
Settings: plasma, iv; monkey male, 25 mg/kg i.v. daily, final dose Day 28 (NOAEL)
EXPERIMENTAL READOUT: Cmax (µg/mL)

CCCCCCC(C)(C)c1cc(O)c2c(c1)OC(C)(C)[C@H]1CC=C(CO)C[C@H]21 :: 163

---

Assay: 1st Phase I study, rising single i.v. dose, healthy male volunteers
Assay type: in vivo, human
Details: male, human, plasma, iv; 48 mg single i.v. infusion, healthy volunteers, mean ± SE
EXPERIMENTAL READOUT: clearance

CCCCCCC(C)(C)c1cc(O)c2c(c1)OC(C)(C)[C@H]1CC=C(CO)C[C@H]21 :: 14.9 mL/min/kg

---

Assay: 14-day multiple dose pharmacokinetic/toxicity study, rabbit
Type: in vivo, rabbits
Details: plasma, iv; rabbit female, 25 mg/kg i.v. daily, final dose Day 14 (NOAEL)
Method: The pharmacokinetics of dexanabinol of high enantiomeric purity formulated in CREMOPHOR EL®:ethanol as described in Example 4 were investigated in rats, rabbits, and monkeys following intravenous administration of single doses, and 14 and 28 days of repeated dosing. Human pharmacokinetics was studied during Phase I and Phase II clinical studies. […] The limit of quantitation of the assay is 0.1 ng/ml. […]
EXPERIMENTAL READOUT: AUC(0-inf) (ng·h/mL)

CCCCCCC(C)(C)c1cc(O)c2c(c1)OC(C)(C)[C@H]1CC=C(CO)C[C@H]21 :: 67900

---

Test: 1st Phase I study, rising single i.v. dose, healthy male volunteers
Assay type: in vivo, human
Settings: male, human, plasma, iv; 48 mg single i.v. infusion, healthy volunteers, mean ± SE, up to 24 hr
EXPERIMENTAL READOUT: AUC(0-inf) (ng·h/mL)

CCCCCCC(C)(C)c1cc(O)c2c(c1)OC(C)(C)[C@H]1CC=C(CO)C[C@H]21 :: 725

---

Assay: Phase II study, single i.v. dose in patients with severe head trauma
Assay type: in vivo, human
Details: human, plasma, iv; 48 mg single i.v. infusion (n = 10), severe TBI patients, mean ± SE
EXPERIMENTAL READOUT: clearance

CCCCCCC(C)(C)c1cc(O)c2c(c1)OC(C)(C)[C@H]1CC=C(CO)C[C@H]21 :: 22.6 mL/min/kg

---

Test: 2nd Phase I study, single i.v. dose 48 or 150 mg, healthy male volunteers
Type: in vivo, human
Settings: male, human, plasma, iv; 150 mg single i.v. infusion, healthy volunteers, mean ± SE, up to 96 hr
EXPERIMENTAL READOUT: AUC(0-inf) (ng·h/mL)

CCCCCCC(C)(C)c1cc(O)c2c(c1)OC(C)(C)[C@H]1CC=C(CO)C[C@H]21 [dexanabinol] :: 3210

---

Assay: 1st Phase I study, rising single i.v. dose, healthy male volunteers
Format: in vivo, human
Details: male, human, plasma, iv, single i.v. infusion 48, 100, 200 mg; read-out: terminal elimination phase half-life
EXPERIMENTAL READOUT: half-life

CCCCCCC(C)(C)c1cc(O)c2c(c1)OC(C)(C)[C@H]1CC=C(CO)C[C@H]21 :: 8.5 to 9.5 h

---

Assay: 28-day multiple dose study, monkey
Assay type: in vivo, monkeys
Details: plasma, iv; monkey female, 25 mg/kg i.v. daily, final dose Day 28 (NOAEL)
EXPERIMENTAL READOUT: Cmax (µg/mL)

CCCCCCC(C)(C)c1cc(O)c2c(c1)OC(C)(C)[C@H]1CC=C(CO)C[C@H]21 [dexanabinol] :: 161
